# system: Human Calpain 2/NS1 (Homo sapiens, UniProt P17655)
# Sequence (P17655 whole entry): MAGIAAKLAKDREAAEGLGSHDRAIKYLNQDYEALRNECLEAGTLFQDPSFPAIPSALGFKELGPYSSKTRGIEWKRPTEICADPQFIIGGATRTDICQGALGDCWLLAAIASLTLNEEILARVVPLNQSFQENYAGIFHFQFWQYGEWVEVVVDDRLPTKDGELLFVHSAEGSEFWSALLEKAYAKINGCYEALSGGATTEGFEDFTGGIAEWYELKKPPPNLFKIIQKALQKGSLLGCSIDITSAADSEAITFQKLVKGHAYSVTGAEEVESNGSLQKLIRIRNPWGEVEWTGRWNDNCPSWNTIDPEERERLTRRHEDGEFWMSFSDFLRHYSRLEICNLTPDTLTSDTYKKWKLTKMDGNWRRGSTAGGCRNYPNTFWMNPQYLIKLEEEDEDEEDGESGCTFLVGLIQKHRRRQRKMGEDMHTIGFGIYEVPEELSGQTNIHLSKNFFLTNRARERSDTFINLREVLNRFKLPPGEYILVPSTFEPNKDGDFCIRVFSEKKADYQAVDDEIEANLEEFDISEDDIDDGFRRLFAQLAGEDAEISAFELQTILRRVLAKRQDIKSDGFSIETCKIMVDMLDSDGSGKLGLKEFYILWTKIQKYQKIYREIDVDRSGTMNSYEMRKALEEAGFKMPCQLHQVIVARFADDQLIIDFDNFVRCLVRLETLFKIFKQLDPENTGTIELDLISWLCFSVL
# Sequence (P04632 whole entry partner): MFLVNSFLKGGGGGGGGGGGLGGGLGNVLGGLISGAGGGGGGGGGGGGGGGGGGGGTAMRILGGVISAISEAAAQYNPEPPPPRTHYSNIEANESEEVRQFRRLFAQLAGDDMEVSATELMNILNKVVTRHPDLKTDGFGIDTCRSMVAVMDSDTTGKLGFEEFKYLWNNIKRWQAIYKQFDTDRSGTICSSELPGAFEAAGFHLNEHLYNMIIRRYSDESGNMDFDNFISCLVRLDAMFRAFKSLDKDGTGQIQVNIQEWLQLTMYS
# protocol: Calpain inhibition continuous fluorescence (FRET) assay, Human Calpain 2/NS1
# Assay type: biochemical
# particulars: read-out: Human Calpain 2/NS1 IC50
pIC50: −log10 of the molar value.
value-type: pIC50

compound="Cc1nc(-c2cccc3c2OCO3)c(C(=O)NC(Cc2ccccc2)C(=O)C(N)=O)o1 (stereo not shown)" system="Human Calpain 2/NS1 (Homo sapiens, UniProt P17655)" value_type=pIC50 result_value="> 5.52"
compound="Cn1cc(C(=O)NC(Cc2ccccc2)C(=O)C(N)=O)c(-n2ncc3ccccc32)n1 (stereo not shown)" system="Human Calpain 2/NS1 (Homo sapiens, UniProt P17655)" value_type=pIC50 result_value="> 5.52"
compound="Cn1cc(C(=O)NC(Cc2ccccc2)C(=O)C(N)=O)c(C2CCOC2)n1 (stereo not shown)" system="Human Calpain 2/NS1 (Homo sapiens, UniProt P17655)" value_type=pIC50 result_value="> 5.52"
compound="Cc1cc(C(=O)NC(Cc2ccccc2)C(=O)C(N)=O)n(-c2cccc(COCc3ccccc3)c2)n1 (stereo not shown)" system="Human Calpain 2/NS1 (Homo sapiens, UniProt P17655)" value_type=pIC50 result_value="> 5.52"
compound=Cc1nc(-c2ccccc2)c(C(=O)N[C@@H](CCc2ccccc2)C(=O)C(N)=O)o1 system="Human Calpain 2/NS1 (Homo sapiens, UniProt P17655)" value_type=pIC50 result_value="> 5.52"
compound="Cn1cc(C(=O)NC(Cc2ccccc2)C(=O)C(N)=O)c(-c2cccc(F)c2C(F)(F)F)n1 (stereo not shown)" system="Human Calpain 2/NS1 (Homo sapiens, UniProt P17655)" value_type=pIC50 result_value="5.00 to 5.52"
compound="Cc1cnc(C(=O)NC(Cc2ccccc2)C(=O)C(N)=O)n1-c1ccccc1 (stereo not shown)" system="Human Calpain 2/NS1 (Homo sapiens, UniProt P17655)" value_type=pIC50 result_value="5.00 to 5.52"
compound=NC(=O)C(=O)[C@H](Cc1ccccc1)NC(=O)c1cn(-c2ccccc2)nc1-c1ccccc1 system="Human Calpain 2/NS1 (Homo sapiens, UniProt P17655)" value_type=pIC50 result_value="> 5.52"
compound="Cn1cc(C(=O)NC(C=O)c2ccccc2C(F)(F)F)c(-c2ccccc2F)n1 (stereo not shown)" system="Human Calpain 2/NS1 (Homo sapiens, UniProt P17655)" value_type=pIC50 result_value="< 5.00"
compound="Cc1cc(C(=O)NC(Cc2ccccc2)C(O)C(N)=O)n(-c2ccnc(Cl)n2)n1 (stereo not shown)" system="Human Calpain 2/NS1 (Homo sapiens, UniProt P17655)" value_type=pIC50 result_value="< 5.00"
compound="Cc1cccc(-c2nn(C)cc2C(=O)NC(Cc2ccccc2)C(=O)C(N)=O)n1 (stereo not shown)" system="Human Calpain 2/NS1 (Homo sapiens, UniProt P17655)" value_type=pIC50 result_value="< 5.00"
compound="NC(=O)C(=O)C(Cc1ccccc1)NC(=O)c1cn(C(F)F)nc1-c1ccc2ccncc2c1 (stereo not shown)" system="Human Calpain 2/NS1 (Homo sapiens, UniProt P17655)" value_type=pIC50 result_value="> 5.52"
compound="O=CC(Cc1ccccc1)NC(=O)c1nsnc1-c1ccccc1 (stereo not shown)" system="Human Calpain 2/NS1 (Homo sapiens, UniProt P17655)" value_type=pIC50 result_value="> 5.52"
compound="NC(=O)C(=O)C(Cc1ccccc1)NC(=O)c1cn(C(F)(F)F)nc1-c1ccccc1 (stereo not shown)" system="Human Calpain 2/NS1 (Homo sapiens, UniProt P17655)" value_type=pIC50 result_value="> 5.52"
compound=Cc1cc(C(=O)N[C@@H](Cc2ccccc2)C(=O)C(N)=O)nn1-c1ccnc(Cl)n1 system="Human Calpain 2/NS1 (Homo sapiens, UniProt P17655)" value_type=pIC50 result_value="5.00 to 5.52"
compound="NC(=O)C(=O)C(Cc1ccccc1)NC(=O)c1cc(C(F)(F)F)nn1-c1ncccn1 (stereo not shown)" system="Human Calpain 2/NS1 (Homo sapiens, UniProt P17655)" value_type=pIC50 result_value="> 5.52"
compound=Cc1cc(C(=O)N[C@@H](Cc2ccccc2)C(=O)CF)n(-c2ccccc2)n1 system="Human Calpain 2/NS1 (Homo sapiens, UniProt P17655)" value_type=pIC50 result_value="> 5.52"
compound=Cc1cc(C)cc(C[C@H](NC(=O)c2cn(C)nc2-c2ccccc2)C(=O)C(N)=O)c1 system="Human Calpain 2/NS1 (Homo sapiens, UniProt P17655)" value_type=pIC50 result_value="> 5.52"
compound=Cc1cn(-c2ccccc2)c(C(=O)N[C@@H](Cc2ccccc2)C(=O)C(N)=O)n1 system="Human Calpain 2/NS1 (Homo sapiens, UniProt P17655)" value_type=pIC50 result_value="> 5.52"
compound="Cc1cc(C(=O)NC(Cc2ccccc2)C(=O)C(=O)NC2CC2)n(-c2cnccn2)n1 (stereo not shown)" system="Human Calpain 2/NS1 (Homo sapiens, UniProt P17655)" value_type=pIC50 result_value="> 5.52"
compound="Cn1cc(C(=O)NC(Cc2ccccc2)C(=O)C(N)=O)c(-c2ccc(C#N)nc2)n1 (stereo not shown)" system="Human Calpain 2/NS1 (Homo sapiens, UniProt P17655)" value_type=pIC50 result_value="> 5.52"
compound="Cc1c(F)cccc1-c1nsnc1C(=O)NC(Cc1ccccc1)C(=O)C(N)=O (stereo not shown)" system="Human Calpain 2/NS1 (Homo sapiens, UniProt P17655)" value_type=pIC50 result_value="> 5.52"
